These measurements were taken from paper PMC12102759.

B1: MBOAT1 peptide 17-32 (Lysophospholipid acyltransferase 1), 16-mer library wild type / NSP3 ADRP (ORF1ab Nsp3b ADRP, residues 1023-1192) (parent)
chain 1: STYLHPLSELLGIPLD
chain 2: not shown

variants of: B1; conditions: with NSP3 ADRP (ORF1ab Nsp3b ADRP, residues 1023-1192); bait immobilised on MaxiSorp plates (10 µg), library pre-cleared on GST, 2 h binding at 4 °C, five washes; one round per day, days 1-4; value from days 2 and 3; keep out of graded; scale: average fractional NGS count over selection days 2 and 3
property.measured: screen value
Returns: the value as a bare number; no unit string appended.

// query State its screen value for this variant: chain 1 L15Q
// result 0

// query Let me know recorded screen value for chain 1 I13D , thanks.
// result 0

// query Consider the variant chain 1 L11R and give its recorded screen value.
// result 4.2e-05

// query Give the reported value of screen value for this record: chain 1 L11Q
// result 0

// query Return reported screen value. Input variant: chain 1 L11A
// result 8.96e-05

// query Read off the recorded screen value for chain 1 S1R
// result 0

// query Item chain 1 L4N : provide screen value
// result 0

// query Report measured screen value; entry is chain 1 Y3G
// result 0.000695

// query // Input: chain 1 L10Y . Output its screen value only.
// result 0.157

// query Could you please provide reported screen value for chain 1 P14F ? Thanks!
// result 0

// query Please report screen value for the following variant: chain 1 S1H
// result 0.000511

// query Could you please provide reported screen value for chain 1 L4F ? Thanks!
// result 0.000245
